- Test system: tumor
- protocolSummary: Antitumor activity of alkylphosphocholines: T/C and median tumor volume after therapy (Example 5)
- Format: in vivo
- conditionInfo: dose 170 μmol/kg
Here, each record is paired with measured Median tumor volume, End of therapy data.
Field: numeric (cm^3). Do not append units.

Examples with answers:
>  <molecule>
CCCCC/C=C\CCCCCCCCCCCCCCCOP(=O)([O-])OCC[N+](C)(C)C [(Z)-16-Docosenyl-1-phosphocholine, (Z)-16-docosenyl-1-phosphocholine]

>  <unitOfMeasurement>
cm^3

>  <Median tumor volume, End of therapy>
0.2

$$$$
>  <molecule>
CCCCCCCC/C=C\CCCCCCCCCCCOP(=O)([O-])OCC[N+](C)(C)C [(Z)-12-Heneicosenyl-1-phosphocholine, (Z)-12-heneicosenyl-1-phosphocholine]

>  <unitOfMeasurement>
cm^3

>  <Median tumor volume, End of therapy>
0.1

$$$$

# input for lookup
Prompt: Under tumor: Median tumor volume, End of therapy value of CCCCC/C=C\CCCC/C=C\CCCCCCCCCOP(=O)([O-])OCC[N+](C)(C)C [(Z,Z)-10,16-Docosadienyl-1-PC] ?
Completion: 0.5

----------
- Tested on: tumor
- protocolSummary: Antitumor activity of alkylphosphocholines: T/C and median tumor volume after therapy (Example 5)
- Format: in vivo
- conditionInfo: dose 42 μmol/kg
Please use fulfilled whenever Median tumor volume, End of therapy is not below 4 cm^3, and not fulfilled whenever it is.

>  <compound>
CCCCCCCC/C=C\CCCCCCCCCCCOP(=O)([O-])OCC[N+](C)(C)C [(Z)-12-Heneicosenyl-1-phosphocholine, (Z)-12-heneicosenyl-1-phosphocholine]

>  <testedTarget>
tumor

>  <label>
not fulfilled

$$$$
>  <compound>
CCCCC/C=C\CCCCCCCCCCCCCCCOP(=O)([O-])OCC[N+](C)(C)C [(Z)-16-Docosenyl-1-phosphocholine, (Z)-16-docosenyl-1-phosphocholine]

>  <testedTarget>
tumor

>  <label>
fulfilled

$$$$
>  <compound>
CCCCC/C=C\CCCC/C=C\CCCCCCCCCOP(=O)([O-])OCC[N+](C)(C)C [(Z,Z)-10,16-Docosadienyl-1-PC]

>  <testedTarget>
tumor

>  <label>
fulfilled

$$$$

Prompt: Quick check, Median tumor volume, End of therapy >= 4 cm^3? CCCCCCC/C=C\CCCC/C=C\CCCCCOP(=O)([O-])OCC[N+](C)(C)C [(Z,Z)-6,12-Eicosadienyl-1-PC, (Z,Z)-6,12-eicosadienyl-1-phosphocholine]
Completion: fulfilled

Prompt: Quick check, Median tumor volume, End of therapy >= 4 cm^3? C=CCCCCCCCC/C=C\CCCCCCCCCCOP(=O)([O-])OCC[N+](C)(C)C [(Z)-11,21-Docosadienyl-1-PC, (Z)-11,21-docosadienyl-1-phosphocholine]
Completion: not fulfilled

----------
Here, each record is paired with measured Median tumor volume, End of therapy data.
- System: tumor
- protocolSummary: Antitumor activity of alkylphosphocholines: T/C and median tumor volume after therapy (Example 5)
- Assay type: in vivo
- conditionInfo: dose 170 μmol/kg
- Excerpt: Comparison of the Known Antitumor Active Ingredient Erucylphosphocholine with Active Ingredients of the Invention Comparison of a compound not of the invention (erucylphosphocholine) with two active ingredients of the invention is shown in Table 1.
Field: numeric (cm^3). Do not append units.

Examples with answers:
>  <compound>
C=CCCCCCCCC/C=C\CCCCCCCCCCOP(=O)([O-])OCC[N+](C)(C)C [(Z)-11,21-Docosadienyl-1-PC, (Z)-11,21-docosadienyl-1-phosphocholine]

>  <testedTarget>
tumor

>  <unitOfMeasurement>
cm^3

>  <quantitativeResult>
0.4

$$$$
>  <compound>
CCCCCCC/C=C\CCCC/C=C\CCCCCOP(=O)([O-])OCC[N+](C)(C)C [(Z,Z)-6,12-Eicosadienyl-1-PC, (Z,Z)-6,12-eicosadienyl-1-phosphocholine]

>  <testedTarget>
tumor

>  <unitOfMeasurement>
cm^3

>  <quantitativeResult>
0.4

$$$$

# input for lookup
Prompt: Can you look up the measured Median tumor volume, End of therapy of CCCCCCCCCCC/C=C\CCCCCCCCCOP(=O)([O-])OCC[N+](C)(C)C [(Z)-10-Docosenyl-1-PC, (Z)-10-docosenyl-1-phosphocholine] for me?
Completion: 0.2
